From: ChEMBL document CHEMBL4513216

Test system: Plasmodium falciparum
Test summary: Screen against P. falciparum Asexual Blood Stage (ABS), at 5uM
Format: functional, Dd2
Settings: tested at 5 uM
Out of some 65,000 compounds screened, about 2,100 (3.2%) showed an effect of 50% or more. The median lay at about -52%. The full list was thinned out, with strong results kept by preference.
Quantity kind: INHIBITION

molecule=CCCn1cc(-c2cc(-c3cc(CC)n[nH]3)c(C#N)c(N)n2)c(C)n1 test_system="Plasmodium falciparum" quantity_kind=INHIBITION measured_result=-20.1%
molecule=Cc1nc(C(=O)NC2CCN(CCOc3ccc(Br)cc3)CC2)cs1 test_system="Plasmodium falciparum" quantity_kind=INHIBITION measured_result=50%
molecule=CN1CCC(N(C)C[C@H]2CC[C@@H](Cc3cccc(O)c3)O2)CC1 test_system="Plasmodium falciparum" quantity_kind=INHIBITION measured_result=57.5%
molecule=O=C(N1CCOCC1)[C@@]12CCO[C@@H]1CCN(Cc1cccc(F)c1)C2 test_system="Plasmodium falciparum" quantity_kind=INHIBITION measured_result=-26.7%
molecule="COc1ccccc1CN1CC(OC)CN(C(=O)OCC(C)C)CC1=O (stereo unspecified)" test_system="Plasmodium falciparum" quantity_kind=INHIBITION measured_result=-40.4%
molecule="COc1ccc(C(=O)NCC(c2cccn2C)N2CCN(C)CC2)cc1 (stereo unspecified)" test_system="Plasmodium falciparum" quantity_kind=INHIBITION measured_result=-35%

----------
Tested on: Plasmodium falciparum
Test summary: Screen against P. falciparum Asexual Blood Stage (ABS), at 5uM
Assay type: functional, Dd2
Settings: tested at 5 uM
Hit rate of the full screen: of about 65,000 compounds, about 2,100 (3.2%) showed an effect of 50% or more. The median lay at about -52%. Shown is part of a subset that was picked to be rich in strong results.
Label 1 (yes) when INHIBITION >= 50%; otherwise 0 (no).

compound=COc1c(CNCc2ccnc(N3CCCCC3)c2)c(C)nn1C answer_label="0 (no)"
compound="CC(C)(C)[S+]([O-])CCNC(=O)c1ccc(Cl)c2cccnc12 (stereo not drawn)" answer_label="0 (no)"
compound=Cc1ccc([C@]2(O)CC[C@H]3CN(Cc4cccc(F)c4F)C[C@H]32)nc1 answer_label="0 (no)"
compound="CNS(=O)(=O)c1cccc(C(C)NCc2ccc(C)o2)c1 (stereo not drawn)" answer_label="0 (no)"
compound="CNS(=O)(=O)c1cccc(C(C)NCc2ccsc2)c1 (stereo not drawn)" answer_label="1 (yes)"
compound=COc1c(CNCc2ccnc(N3CCCC3)c2)c(C)nn1C answer_label="0 (no)"
compound=CC(=O)NCCCNCc1ccc(Cl)c2cccnc12 answer_label="0 (no)"
compound=Nc1nnnn1NCc1ccccc1C(F)(F)F answer_label="0 (no)"
compound=CC(C)(C)NS(=O)(=O)c1ccccc1CNCc1cccc(O)c1 answer_label="1 (yes)"
compound=O=C(c1cocn1)N1CC[C@H]2OCC[C@@]2(COc2ncccc2F)C1 answer_label="0 (no)"
compound="CNS(=O)(=O)c1cccc(C(C)NCc2ccccc2)c1 (stereo not drawn)" answer_label="1 (yes)"
compound=CCN1C[C@@H]2[C@@H](OC)CCN(S(=O)(=O)c3ccccc3)[C@@H]2C1 answer_label="0 (no)"
compound="COc1ccc2c(c1)C(NCCc1ncc(C)s1)CCCO2 (stereo not drawn)" answer_label="0 (no)"
compound="COc1cccc(CNC2CCCOc3cc(C)ccc32)n1 (stereo not drawn)" answer_label="1 (yes)"
compound=CCS(=O)(=O)N1CCc2ccc(NC(=O)Nc3cccc(F)c3)cc21 answer_label="0 (no)"
compound=CCc1ccc(CN(C/C=C/c2ccccc2)CCOC)nc1 answer_label="1 (yes)"
compound=CSc1ccc(CN2C[C@@H]3CC[C@@](O)(c4ccc(C)cn4)[C@@H]3C2)cc1 answer_label="1 (yes)"
compound=Cc1ccc([C@]2(O)CC[C@H]3CN(Cc4ccc(Cl)cc4Cl)C[C@H]32)nc1 answer_label="1 (yes)"
compound=CCS(=O)(=O)NCCNCc1ccc(Cl)c2cccnc12 answer_label="1 (yes)"
compound=CCn1cnnc1CNC(=O)N1CCN(c2ccccc2Cl)CC1 answer_label="0 (no)"
compound=COCCN(C/C=C/c1ccccc1)Cc1nccs1 answer_label="0 (no)"
compound="CC(O)CNCc1ccccc1C(F)(F)F (stereo not drawn)" answer_label="0 (no)"
compound=Cc1nn(C)c2c(NC3CCCC3)nc(C3CC3)nc12 answer_label="0 (no)"
